Where do these numbers come from? They come from patent US20190134005A1.

- study-target: human CGT (Homo sapiens)
- Sequence (Q16880 21-541): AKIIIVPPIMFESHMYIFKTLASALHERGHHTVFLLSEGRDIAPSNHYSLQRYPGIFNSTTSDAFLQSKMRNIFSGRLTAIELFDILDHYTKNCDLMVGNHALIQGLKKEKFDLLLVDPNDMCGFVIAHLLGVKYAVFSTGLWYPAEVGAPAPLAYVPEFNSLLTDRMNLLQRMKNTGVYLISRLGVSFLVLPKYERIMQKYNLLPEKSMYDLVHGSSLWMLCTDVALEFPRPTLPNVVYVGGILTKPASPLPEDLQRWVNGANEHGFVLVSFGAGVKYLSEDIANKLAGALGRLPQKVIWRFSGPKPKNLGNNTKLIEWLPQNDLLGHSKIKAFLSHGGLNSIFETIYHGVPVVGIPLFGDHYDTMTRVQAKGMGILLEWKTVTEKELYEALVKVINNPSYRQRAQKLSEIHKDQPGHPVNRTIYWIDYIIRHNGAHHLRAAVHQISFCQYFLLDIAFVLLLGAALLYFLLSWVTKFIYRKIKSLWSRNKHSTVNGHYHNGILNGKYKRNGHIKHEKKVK
- procedure-summary: Assay 1: CGT Enzymatic Assay (RapidFire/MS/MS, 0.01% Tween 80)
- Format: biochemical
- measurement-conditions: Table 1, Compounds of Formula (I) and Formula (II); CGT enzymatic assay; read-out: IC50
pIC50: −log10 of the molar value.
// reported pIC50 for each item listed

Some solved entries appear below for comparison.
| molecule | study-target | pIC50 |
| --- | --- | --- |
| CCC1N(c2ccc(Cl)cc2)C(=O)N(c2ccc(Cl)cc2)C1(O)c1cccc(Cl)c1 (stereo not shown) | human CGT (Homo sapiens) | > 6.00 |
| CCC[C@@H]1N(c2ccc(Cl)cc2)C(=O)N(c2ccc(Cl)cc2)C1(O)c1cccc(C(F)(F)F)c1 (single isomer, unassigned) | human CGT (Homo sapiens) | > 6.00 |
| O=C1N(c2ccc(Br)cc2)C(=O)C(O)(c2ccc(N3CCCCC3)cc2)N1c1ccc(Br)cc1 (stereo not shown) | human CGT (Homo sapiens) | < 4.30 |

Now consider a different molecule.
Return pIC50 measured with human CGT (Homo sapiens) given this molecule: CC[C@@H]1N(c2ccc(F)cc2)C(=O)N(c2ccc(F)cc2)C1(O)c1cccc(C#N)c1 (stereo partly shown)
5.00 to 6.00

###

Below: a set of entries, each annotated with reported IC50.
- study-target: human CGT (Homo sapiens)
- procedure-summary: CGT Enzyme Assay (Biological Example 2, RapidFire/MS/MS method with 0.01% Tween 80 added)
- Assay type: biochemical
- measurement-conditions: enzymatic assay, CHO/CGT lysate

# example entries with known answers
| structure-string | observed-result |
| --- | --- |
| C[C@@]1(C(F)(F)F)[C@H](c2cccc(OC(F)(F)F)c2)N(c2ccc(Cl)cc2)C(=O)N1c1ccc(Cl)cc1 | < 1000 nM |
| CC1(C)[C@H](c2cccc(OC(F)(F)F)c2)N(c2ccccc2)C(=O)N1c1ccccc1 | 1000 to 10000 nM |
| CC1(C)[C@H](c2cccc(OC(F)(F)F)c2)N(c2cccc(Cl)c2)C(=O)N1c1cccc(Cl)c1 | < 1000 nM |
| C[C@@H]1[C@@H](c2cccc(OC(F)(F)F)c2)N(c2ccc(Br)cc2)C(=O)N1c1ccc(Br)cc1 | 1000 to 10000 nM |
| COC[C@@]1(C)[C@@H](c2cccc(OC(F)(F)F)c2)N(c2ccc(Cl)cc2)C(=O)N1c1ccc(Cl)cc1 | 1000 to 10000 nM |

Item CC1(C)[C@H](c2cccc(OC(F)(F)F)c2)N(c2ccc(Cl)cc2)C(=O)N1c1ccc(C#N)cc1 has what recorded IC50?
< 1000 nM

Endpoint output: IC50 of CC1(C)[C@@H](c2cccc(OC(F)(F)F)c2)N(c2ccc(Cl)cc2)C(=O)N1c1ccc(C#N)cc1 . Value?
10000 to 30000 nM

###

- study-target: human CGT (Homo sapiens, UniProt Q16880)
- Sequence (Q16880 21-541): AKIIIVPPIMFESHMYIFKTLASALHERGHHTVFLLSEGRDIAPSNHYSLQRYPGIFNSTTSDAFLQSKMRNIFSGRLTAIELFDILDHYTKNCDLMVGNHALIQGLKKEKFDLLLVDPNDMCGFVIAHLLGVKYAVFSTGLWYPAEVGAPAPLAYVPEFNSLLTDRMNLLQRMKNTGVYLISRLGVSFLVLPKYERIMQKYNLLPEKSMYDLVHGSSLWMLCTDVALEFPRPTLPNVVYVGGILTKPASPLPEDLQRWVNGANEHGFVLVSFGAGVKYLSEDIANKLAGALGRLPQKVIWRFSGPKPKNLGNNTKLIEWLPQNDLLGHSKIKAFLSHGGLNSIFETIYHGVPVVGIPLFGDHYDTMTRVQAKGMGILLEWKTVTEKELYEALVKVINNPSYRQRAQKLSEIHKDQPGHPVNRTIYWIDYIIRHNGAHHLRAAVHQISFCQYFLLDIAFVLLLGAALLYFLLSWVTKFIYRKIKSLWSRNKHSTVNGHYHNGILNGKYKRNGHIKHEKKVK
- procedure-summary: Assay 1: CGT Enzymatic Assay (RapidFire/MS/MS, 0.01% Tween 80)
- Assay type: biochemical
- measurement-conditions: Table 1, Compounds of Formula (I) and Formula (II); CGT enzymatic assay; read-out: IC50
Listed next: entries and their corresponding IC50.

Given the compound COc1cccc(C2(O)CN(c3ccc(Br)cc3)C(=O)N2c2ccc(Br)cc2)c1 (stereo not drawn) , what is its reported IC50?
1000 to 10000 nM

For CC1N(c2ccc(Br)cc2)C(=O)N(c2ccc(Br)cc2)C1(O)c1cccc(Cl)c1 (stereo not drawn) , what is its reported IC50?
< 1000 nM

Entry CC[C@H]1N(c2ccc(Br)cc2)C(=O)N(c2ccc(Br)cc2)C1(O)c1cccc(C(F)(F)F)c1 (stereo partly drawn) has what IC50?
< 1000 nM

Data request, read-out IC50, for O=C1N(c2ccc(Br)cc2)C(=O)C(O)(C2CCOCC2)N1c1ccc(Br)cc1 (stereo not drawn)
10000 to 50000 nM

Data request, read-out IC50, for CCC[C@@H]1N(c2ccc(Cl)cc2)C(=O)N(c2ccc(Cl)cc2)C1(O)c1cccc(CC)c1 (stereo partly drawn)
< 1000 nM

// query IC50 value for entry N#Cc1cccc(-c2c(C3CC3)n(-c3ccc(Cl)cc3)c(=O)n2-c2ccc(Cl)cc2)c1
< 1000 nM

Would you kindly share the measured IC50 for O=C1N(c2ccc(Cl)cc2)[C@H]([C@H]2CCCO2)C(O)(c2cccc(Cl)c2)N1c1ccc(Cl)cc1 (single isomer, unassigned) ?
1000 to 10000 nM

Please give the measured IC50 for this compound: O=C1N(c2ccc(Cl)cc2)CC(O)(c2ccccc2)N1c1ccc(Br)cc1 (stereo not drawn)
10000 to 50000 nM

###

Parameter IC50: see the listing below.
- study-target: human CGT (Homo sapiens)
- procedure-summary: Assay 1: CGT Enzymatic Assay (RapidFire/MS/MS, 0.01% Tween 80)
- Type: biochemical
- measurement-conditions: Table 1, Compounds of Formula (I) and Formula (II); CGT enzymatic assay; read-out: IC50

| compound | observed-result |
| --- | --- |
| COc1cccc(C2(O)C(=O)N(c3ccc(Br)cc3)C(=O)N2c2ccc(Br)cc2)c1 (stereo not drawn) | 10000 to 50000 nM |
| Cc1cccc(-c2c(C)n(-c3ccc(Br)cc3)c(=O)n2-c2ccc(Br)cc2)c1 | 1000 to 10000 nM |
| C[C@H]1N(c2ccc(C#N)cc2)C(=O)N(c2ccc(C#N)cc2)C1(O)c1cccc(OC(F)(F)F)c1 (stereo partly drawn) | < 1000 nM |

Recorded IC50 for O=C1N(c2ccc(Cl)c(Cl)c2)CC(O)(c2ccccc2)N1c1ccc(Cl)c(Cl)c1 (stereo not drawn) , please?
1000 to 10000 nM

Query: IC50; subject: CCOC(=O)C1(O)C(c2ccccc2)N(c2ccc(Cl)cc2)C(=O)N1c1ccc(Cl)cc1 (stereo not drawn)
1000 to 10000 nM

Any idea what its IC50 is? The compound is CCC1N(c2ccc(Br)cc2)C(=O)N(c2ccc(Br)cc2)C1(O)c1cccc(OC(F)(F)F)c1 (stereo in doubt) [Compound 83-1]
< 1000 nM

Entry O=C1N(c2ccc(Br)cc2)C(=O)C(O)(c2ccco2)N1c1ccc(Br)cc1 (stereo not drawn) has what IC50?
> 50000 nM

Given the entry CC[C@H]1N(c2ccc(Cl)cc2)C(=O)N(c2ccc(Cl)cc2)C1(O)c1cccc(C#N)c1 (single isomer, unassigned) , report its measured IC50.
< 1000 nM

###

- study-target: human CGT (Homo sapiens, UniProt Q16880)
- procedure-summary: Assay 1: CGT Enzymatic Assay (RapidFire/MS/MS, 0.01% Tween 80)
- Assay type: biochemical
- measurement-conditions: Table 1, Compounds of Formula (I) and Formula (II); CGT enzymatic assay; read-out: IC50
Overview of recorded IC50 for various molecules

Worked cases, IC50 given:
| molecule | IC50 |
| --- | --- |
| O=C1N(c2ccc(Cl)cc2)C2(CC2)C(O)(c2cccc(OC(F)F)c2)N1c1ccc(Cl)cc1 (centres unmarked) | < 1000 nM |
| Cc1ccc(N2C(=O)N(c3ccc(C)cc3)C(O)(c3cccc(OC(F)(F)F)c3)[C@H]2C(C)C)cc1 (single isomer, unassigned) | < 1000 nM |
| O=C1N(c2ccc(Br)cc2)CC(O)(c2cccnc2)N1c1ccc(Br)cc1 (centres unmarked) | 10000 to 50000 nM |
| CC[C@]1(C)N(c2ccc(Cl)cc2)C(=O)N(c2ccc(Cl)cc2)C1(O)c1cccc(C#N)c1 (single isomer, unassigned) | < 1000 nM |
| COC(=O)C1(O)[C@H](C)N(c2ccc(Br)cc2)C(=O)N1c1ccc(Br)cc1 (single isomer, unassigned) | > 50000 nM |
| O=C1N(c2ccc(Cl)cc2)CC(O)(c2ccccc2)N1c1ccc(Cl)cc1 (centres unmarked) | 1000 to 10000 nM |

Reported IC50, molecule N#Cc1cccc(C2(O)N(c3ccc(Cl)cc3)C(=O)N(c3ccc(Cl)cc3)C23CC3)c1 (centres unmarked) : ____
< 1000 nM

Which IC50 is listed for CCCC1N(c2ccc(Cl)cc2)C(=O)N(c2ccc(Cl)cc2)C1(O)c1cccc(C)c1 (centres unmarked) ?
< 1000 nM
